Biological target: Quinolone resistance protein NorA (Staphylococcus aureus)
Assay: Inhibition of NorA efflux pump in Staphylococcus aureus K2361 assessed as reduction of ethidium bromide efflux at 0.5 uM […]
measurement label: inhibition (%)

[
  {
    "compound": "NCc1ccc(NC(=O)Nc2ccc(Cl)cc2)cc1",
    "inhibition, %": 20
  },
  {
    "compound": "CC1COc2c(NCc3ccc(NC(=O)Nc4ccccc4)cc3)c(F)cc3c(=O)c(C(=O)O)cn1c23 (centres undefined)",
    "inhibition, %": 73.6
  },
  {
    "compound": "NCc1ccc(NC(=O)Nc2ccccc2)cc1",
    "inhibition, %": 20
  },
  {
    "compound": "O=C(Nc1ccccc1)Nc1ccccc1",
    "inhibition, %": 20
  }
]

---

Test system: Staphylococcus aureus
Assay: Antibacterial activity against Staphylococcus aureus K2361 overexpressing norA by broth microdilution technique
Format: functional
measurement label: MIC (µg/mL)
Just the number please, in µg/mL, no unit attached.

[
  {
    "compound": "O=C(O)c1cn(C2CC2)c2cc(N3CCNCC3)c(F)cc2c1=O [CIPROFLOXACIN]",
    "target or system": "Staphylococcus aureus",
    "unit of measure": "µg/mL",
    "MIC": 2.5
  },
  {
    "compound": "O=C(Nc1ccccc1)Nc1ccc(CN2CCN(c3cc4c(cc3F)c(=O)c(C(=O)O)cn4C3CC3)CC2)cc1",
    "target or system": "Staphylococcus aureus",
    "unit of measure": "µg/mL",
    "MIC": 1.25
  },
  {
    "compound": "CC1COc2c(NCc3ccc(NC(=O)Nc4ccccc4)cc3)c(F)cc3c(=O)c(C(=O)O)cn1c23 (stereo not given)",
    "target or system": "Staphylococcus aureus",
    "unit of measure": "µg/mL",
    "MIC": 100
  }
]

From here, focus on the item given below.
Give the reported MIC for CC1COc2c(N3CCN(C)CC3)c(F)cc3c(=O)c(C(=O)O)cn1c23 (stereo not given) [OFLOXACIN] (system: Staphylococcus aureus).
2.5

---

Tested on: Staphylococcus aureus
Assay: Antibacterial activity against Staphylococcus aureus K1758-A overexpressing mepA by broth microdilution technique
Assay type: functional
measurement label: MIC (µg/mL)
Report only the number, with the unit µg/mL understood.

Consider the worked cases shown below.
[
  {
    "compound": "O=C(O)c1cn(C2CC2)c2cc(N3CCNCC3)c(F)cc2c1=O",
    "unit of measure": "µg/mL",
    "result value": 0.63
  },
  {
    "compound": "O=C(Nc1ccccc1)Nc1ccc(CN2CCN(c3cc4c(cc3F)c(=O)c(C(=O)O)cn4C3CC3)CC2)cc1",
    "unit of measure": "µg/mL",
    "result value": 0.63
  }
]

Switching to the query record.
MIC for CC1COc2c(N3CCN(C)CC3)c(F)cc3c(=O)c(C(=O)O)cn1c23 (centres undefined) ?
1.25

---

Test system: Escherichia coli
Test: Antibacterial activity against Escherichia coli AG102 overexpressing acrAB by broth microdilution technique
Format: functional
Each entry below carries its reported MIC.
Express your answer in µg/mL, writing the number without its unit.

[
  {
    "molecule": "NCCC[C@H](N)C(=O)N[C@@H](Cc1ccccc1)C(=O)N1CCN(c2cc3c(cc2F)c(=O)c(C(=O)O)cn3C2CC2)CC1",
    "target or system": "Escherichia coli",
    "MIC / µg/mL": 10
  }
]

Fill blank: measured MIC of the molecule O=C(O)c1cn(C2CC2)c2cc(N3CCNCC3)c(F)cc2c1=O [CIPROFLOXACIN] is ____.
0.04

Form field: reported MIC of NCCC[C@@H](NC(=O)[C@@H](N)Cc1ccccc1)C(=O)N1CCN(c2cc3c(cc2F)c(=O)c(C(=O)O)cn3C2CC2)CC1
10

Which MIC value belongs to CC1COc2c(NCc3ccc(NC(=O)Nc4ccccc4)cc3)c(F)cc3c(=O)c(C(=O)O)cn1c23 (stereo unspecified) ?
10

State the recorded MIC for this entry: CC1COc2c(N3CCN(C)CC3)c(F)cc3c(=O)c(C(=O)O)cn1c23 (stereo unspecified) [OFLOXACIN]
0.16

// MIC lookup, key: O=C(Nc1ccccc1)Nc1ccc(CN2CCN(c3cc4c(cc3F)c(=O)c(C(=O)O)cn4C3CC3)CC2)cc1
10

---

Tested on: Pseudomonas aeruginosa
Experiment: Antibacterial activity against Pseudomonas aeruginosa PAO1 by broth microdilution technique
Assay type: functional
measurement label: MIC (µg/mL)
Numbers only; they are read as µg/mL.

[
  {
    "compound": "CC1COc2c(N3CCN(C)CC3)c(F)cc3c(=O)c(C(=O)O)cn1c23 (stereo unspecified) [OFLOXACIN]",
    "MIC / µg/mL": 1.25
  }
]

Would you kindly share the measured MIC for CC1COc2c(NCc3ccc(NC(=O)Nc4ccccc4)cc3)c(F)cc3c(=O)c(C(=O)O)cn1c23 (stereo unspecified) ?
50

// MIC lookup, key: NCCC[C@H](N)C(=O)N[C@@H](Cc1ccccc1)C(=O)N1CCN(c2cc3c(cc2F)c(=O)c(C(=O)O)cn3C2CC2)CC1
50

Data request, read-out MIC, for NCCC[C@@H](NC(=O)[C@@H](N)Cc1ccccc1)C(=O)N1CCN(c2cc3c(cc2F)c(=O)c(C(=O)O)cn3C2CC2)CC1
50

Quick one: MIC for O=C(Nc1ccccc1)Nc1ccc(CN2CCN(c3cc4c(cc3F)c(=O)c(C(=O)O)cn4C3CC3)CC2)cc1 ?
50

Please give the measured MIC for this compound: O=C(O)c1cn(C2CC2)c2cc(N3CCNCC3)c(F)cc2c1=O [CIPROFLOXACIN]
0.16
